Target protein (sequence): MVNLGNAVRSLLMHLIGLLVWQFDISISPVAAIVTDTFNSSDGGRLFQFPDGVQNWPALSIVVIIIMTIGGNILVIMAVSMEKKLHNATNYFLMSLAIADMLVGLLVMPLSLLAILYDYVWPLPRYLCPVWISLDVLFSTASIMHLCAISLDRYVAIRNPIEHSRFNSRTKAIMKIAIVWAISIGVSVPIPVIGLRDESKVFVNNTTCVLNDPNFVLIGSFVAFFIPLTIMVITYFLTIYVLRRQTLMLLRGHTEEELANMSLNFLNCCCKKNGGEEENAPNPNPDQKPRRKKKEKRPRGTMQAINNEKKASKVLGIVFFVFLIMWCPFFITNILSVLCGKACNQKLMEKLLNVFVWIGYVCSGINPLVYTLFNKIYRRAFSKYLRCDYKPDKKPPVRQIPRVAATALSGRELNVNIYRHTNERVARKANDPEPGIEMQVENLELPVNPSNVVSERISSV
endpoint_label: IC50 (nM)
Dear colleague, please return just the value in nM, with no unit written.

>>> measurement("CN1CCN(C2=Nc3ccccc3Nc3ccc(OS(C)(=O)=O)cc32)CC1")
1200

State, in one line, measured IC50 of CN1CCN(C2=Nc3cc(Cl)ccc3Nc3ccc(OS(=O)(=O)C(F)(F)F)cc32)CC1
13
